Entry source: patent US20240209086A1

// reported CD25 Activation, Day 9, IS for each item listed
Molecular target: canine CD3 on canine T cells (canine PBMC) (canine, UniProt P27597 22-202)
Sequence (P27597 22-202 limits assumed, chain 1 of 3): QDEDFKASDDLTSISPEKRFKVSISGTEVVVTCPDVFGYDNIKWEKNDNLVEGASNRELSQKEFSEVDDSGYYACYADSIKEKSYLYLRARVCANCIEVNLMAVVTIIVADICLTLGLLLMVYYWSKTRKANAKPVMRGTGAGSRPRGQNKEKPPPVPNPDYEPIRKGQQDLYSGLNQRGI
Sequence (chain, as listed by the source limits assumed, chain 2 of 3): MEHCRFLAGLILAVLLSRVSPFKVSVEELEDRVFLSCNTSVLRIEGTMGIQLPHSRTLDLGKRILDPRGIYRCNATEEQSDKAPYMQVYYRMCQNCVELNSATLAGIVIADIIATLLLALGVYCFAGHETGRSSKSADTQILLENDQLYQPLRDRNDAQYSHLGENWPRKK
Sequence (chain, as listed by the source limits assumed, chain 3 of 3): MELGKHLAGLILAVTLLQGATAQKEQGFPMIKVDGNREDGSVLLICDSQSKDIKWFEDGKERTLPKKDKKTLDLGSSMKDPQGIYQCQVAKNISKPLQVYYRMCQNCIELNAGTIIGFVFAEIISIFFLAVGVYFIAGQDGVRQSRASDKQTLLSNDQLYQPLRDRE
Test: cell-based or functional assay
# answer = number (no unit)

Examples from the recorded data:
{"columns": ["binder", "observed"],
 "data": [
  ["PMX179 (monospecific anti-canine CD3, canine IgG-B effector function deficient Fc) (antibody, V domains shown) VH: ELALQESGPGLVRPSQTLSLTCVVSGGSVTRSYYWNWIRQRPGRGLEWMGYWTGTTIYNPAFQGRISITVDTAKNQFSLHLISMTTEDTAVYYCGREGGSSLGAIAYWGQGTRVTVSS VL: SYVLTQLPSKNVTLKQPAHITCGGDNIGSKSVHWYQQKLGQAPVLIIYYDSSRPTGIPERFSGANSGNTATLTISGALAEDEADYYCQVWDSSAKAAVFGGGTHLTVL", 10.9],
  ["PMX196 (monospecific anti-canine CD3, canine IgG-B effector function deficient Fc) (antibody, V domains shown) VH: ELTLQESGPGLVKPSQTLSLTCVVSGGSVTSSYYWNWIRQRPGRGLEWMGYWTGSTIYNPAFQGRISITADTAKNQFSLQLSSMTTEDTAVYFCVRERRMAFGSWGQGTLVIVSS VL: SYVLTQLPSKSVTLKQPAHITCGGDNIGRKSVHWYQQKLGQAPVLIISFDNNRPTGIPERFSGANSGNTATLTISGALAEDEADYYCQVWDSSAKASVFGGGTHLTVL", 6.6]
]}

Now consider a different binder.
CD25 Activation, Day 9, IS reported for this binder PMX183 (monospecific anti-canine CD3, canine IgG-B effector function deficient Fc) (antibody, V domains shown) VH: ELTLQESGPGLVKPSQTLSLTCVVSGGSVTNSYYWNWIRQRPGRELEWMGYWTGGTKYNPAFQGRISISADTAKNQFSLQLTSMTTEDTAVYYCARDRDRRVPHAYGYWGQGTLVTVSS VL: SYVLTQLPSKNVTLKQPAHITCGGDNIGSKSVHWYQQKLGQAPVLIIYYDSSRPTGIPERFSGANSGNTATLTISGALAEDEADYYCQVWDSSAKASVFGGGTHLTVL : 10.1
